target: recombinant LSD1 (Homo sapiens); experiment: LSD1 enzymatic assay; type: biochemical; settings: LSD1 IC50, recombinant LSD1
pIC50: −log10 of the molar value.
Readout label: pIC50

Compound	Readout label	Comparison operator	Obs value
OCCNc1cc(Sc2nnnn2-c2ccccc2)nc(SCc2ccccc2)n1 [Compound 22b]	pIC50	<	5.00
C#CCSc1nc(Sc2nnnn2-c2ccccc2)c2nnn(Cc3ccc(OC)cc3)c2n1 [Compound 15y]	pIC50	=	6.85
